Every entry's value here was drawn from patent US9938249B2.

Form: system (Terminally biotinylated beta-amyloid (Aβ42) (Homo sapiens, UniProt P05067)), quantity (pIC50), values below.
Numbers only, as −log10 of the molar value.

Please go through the list and note pIC50 for each compound.
1. Cc1ccc(C)c(-c2cc(N3CC(CN4CCCC4)C3)c3nonc3c2)c1
2. OC(c1ccc(-c2cc(N3CC(CN4CCOCC4)C3)c3nonc3c2)nc1)C(F)(F)F (stereo not shown)
3. OCc1nc(-c2cc(N3CC(CN4CCOCC4)C3)c3nonc3c2)no1
4. CC(=O)N1C=C(c2cc(N3CC(CN4CCCC4)C3)c3nonc3c2)CCC1

Given back:
1. 5.12
2. 5.24
3. 4.80
4. 5.46

----------
Molecular target: Aβ40 (Homo sapiens)
Test: ThT Aβ aggregation assay (kinetic Thioflavin T fluorescence)
Assay type: biochemical
Conditions: compound 10 μM; 20 μM Aβ; DMSO control at 80 hr = 0% inhibition; number in parenthesis = compound ID 1027 in that experiment; read-out: % inhib Thioflavin T Aβ 40 10 μM
Method: Preparation of Aβ40 Stock Solutions Aβ40 (1.0 mg) was pre-treated in a 1.5 mL microfuge tube with HFIP (1 mL) and sonicated for 20 min to disassemble any pre-formed Aβ aggregates. […] The kinetic ThT assay for Aβ aggregation is similar to that of Chalifour et al (Chalifour et al, 2003, J. Biol. Chem. 278:34874-81). […] Plates were covered with clear polystyrene lids and incubated at 37° C. in a Tecan Genios microplate reader. […]
What inhibition at 10 µM was measured for each of the following?
Numbers only, in %.

# compound, value_type, data_value
rows = [
    ("OC(c1cc(-c2cc(N3CC(CN4CCCC4)C3)c3nonc3c2)cs1)C(F)(F)F (centres unmarked) [compound 1535]", "inhibition at 10 µM", 77),
    ("c1cc(-c2cc(N3CC(CN4CCCC4)C3)c3nonc3c2)co1 [compound 1510]", "inhibition at 10 µM", 65),
    ("COc1cccc(OC)c1-c1cc(N2CC(CN3CCCC3)C2)c2nonc2c1 [compound 1511]", "inhibition at 10 µM", 27),
    ("Brc1cc(N2CC(CN3CCOCC3)C2)c2nonc2c1 [compound 1470]", "inhibition at 10 µM", 62),
]

As a next step, examine the compound that follows.
Asked: So what inhibition at 10 µM did CN(CCCN1CCCC1)c1cc(-c2cccc(C(O)C(F)(F)F)c2)cc2nonc12 (centres unmarked) [compound 1469] get with Aβ40 (Homo sapiens)?
Given back: 75

----------
Give measured inhibition at 10 µM for each item. Keep answers brief.
target: Aβ40 (Homo sapiens, UniProt P05067); test: ThT Aβ aggregation assay (kinetic Thioflavin T fluorescence); format: biochemical; settings: compound 10 μM; 20 μM Aβ; DMSO control at 80 hr = 0% inhibition; number in parenthesis = compound ID 1027 in that experiment; read-out: % inhib Thioflavin T Aβ 40 10 μM
Sequence (P05067 672-711, species assumed): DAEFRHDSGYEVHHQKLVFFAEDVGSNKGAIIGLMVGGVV
Numbers only, in %.

# molecule, inhibition at 10 µM / %
measured = [
    ("COc1ccc(-c2cc(N3CC(CN4CCCC4)C3)c3nonc3c2)cc1OC [compound 1483]", 36),
    ("Cc1ccc(-c2cc(N3CC(CN4CCCC4)C3)c3nonc3c2)c2ccccc12 [compound 1494]", 45),
    ("CN(C)C(=O)c1ccccc1-c1cc(N2CC(CN3CCCC3)C2)c2nonc2c1 [compound 1542]", 36),
    ("COc1ccc(-c2cc(N3CC(CN4CCCC4)C3)c3nonc3c2)c(OC)c1 [compound 1515]", 61),
    ("N#Cc1cccc(-c2cc(N3CC(CN4CCCC4)C3)c3nonc3c2)c1 [compound 1493]", 57),
    ("Cn1cc(-c2cc(N3CC(CN4CCCC4)C3)c3nonc3c2)cn1 [compound 1527]", 49),
]

Provide reported inhibition at 10 µM for each item, in the same order as listed.
1. CN1CCC=C(c2cc(N3CC(CN4CCCC4)C3)c3nonc3c2)C1 [compound 1524]
2. Brc1cc(N2CC(CN3CCCC3)C2)c2nonc2c1 [compound 1472]
3. O=C(c1cc(N2CC(CN3CCCC3)C2)c2nonc2c1)C(F)(F)F [compound 1477]

Given back:
[61, 65, 30]

----------
biological target: Aβ40 (Homo sapiens, UniProt P05067); assay: ThT Aβ aggregation assay (kinetic Thioflavin T fluorescence); type: biochemical; settings: compound 10 μM; 20 μM Aβ; DMSO control at 80 hr = 0% inhibition; number in parenthesis = compound ID 1027 in that experiment; read-out: % inhib Thioflavin T Aβ 40 10 μM
So I've got a bunch of compounds here, and I need their inhibition at 10 µM values.
Answers are plain numbers, in %.

Guide cases for inhibition at 10 µM, answers given:
# compound, tested_target, quantity_unit, inhibition at 10 µM
rows = [
    ("O=C(NC1CC1)c1cc(N2CC(CN3CCCC3)C2)c2nonc2c1", "Aβ40 (Homo sapiens, UniProt P05067)", "%", 31),
    ("CCCc1ccc(-c2cc(N3CC(CN4CCCC4)C3)c3nonc3c2)cc1", "Aβ40 (Homo sapiens, UniProt P05067)", "%", 83),
    ("COc1cccc(-c2cc(N3CC(CN4CCCC4)C3)c3nonc3c2)c1OC", "Aβ40 (Homo sapiens, UniProt P05067)", "%", 51),
    ("O=C(c1cc(N2CC(CN3CCCC3)C2)c2nonc2c1)N1CCOCC1", "Aβ40 (Homo sapiens, UniProt P05067)", "%", 54),
    ("OC(c1ccc(-c2cc(N3CCC(N4CCCC4)CC3)c3nonc3c2)cc1)C(F)(F)F (stereo not shown)", "Aβ40 (Homo sapiens, UniProt P05067)", "%", 65),
    ("c1coc(-c2cc(N3CC(CN4CCCC4)C3)c3nonc3c2)c1", "Aβ40 (Homo sapiens, UniProt P05067)", "%", 79),
    ("OC(c1ccccc1-c1cc(N2CC(CN3CCCC3)C2)c2nonc2c1)C(F)(F)F (stereo not shown)", "Aβ40 (Homo sapiens, UniProt P05067)", "%", 77),
    ("CSc1ccccc1-c1cc(N2CC(CN3CCCC3)C2)c2nonc2c1", "Aβ40 (Homo sapiens, UniProt P05067)", "%", 68),
]

Below are some compounds; for each one, tell me its inhibition at 10 µM.
1. OCc1ccccc1-c1cc(N2CC(CN3CCCC3)C2)c2nonc2c1
2. COC(c1cc(N2CC(CN3CCCC3)C2)c2nonc2c1)C(F)(F)F (stereo not shown)
3. c1cc(-c2cc(N3CC(CN4CCCC4)C3)c3nonc3c2)n[nH]1
4. Clc1cc(Cl)cc(-c2cc(N3CC(CN4CCCC4)C3)c3nonc3c2)c1
5. Clc1ccc(-c2cc(N3CC(CN4CCCC4)C3)c3nonc3c2)cn1

Given back:
1. 34
2. 55
3. 63
4. 63
5. 41

----------
molecular target: Aβ40 (Homo sapiens, UniProt P05067); experiment: ThT Aβ aggregation assay (kinetic Thioflavin T fluorescence); assay type: biochemical; details: 80 h, compound 5 μm (so in the source); 20 μM Aβ; DMSO control at 80 hr = 0% inhibition; number in parenthesis = compound ID 1027 in that experiment; read-out: % inhib Thioflavin T Aβ 40 (5 μm)
Would you mind telling me the reported inhibition at 5 µM of each entry?
Give bare numbers, in %.

Guide cases for inhibition at 5 µM, answers given:
# compound, value_type, data_value
measured = [
    ("O=C(c1cc(N2CC(CN3CCCC3)C2)c2nonc2c1)N1CCOCC1 [compound 1538]", "inhibition at 5 µM", 47),
    ("CCN(CC)C(=O)c1cc(N2CC(CN3CCCC3)C2)c2nonc2c1 [compound 1540]", "inhibition at 5 µM", 41),
]

Asked: For the compound shown here, COC(c1cc(N2CC(CN3CCCC3)C2)c2nonc2c1)C(F)(F)F (stereo not drawn) [compound 1539] , give the reported inhibition at 5 µM.
Given back: 53

----------
Consider the following pIC50 values measured on Terminally biotinylated beta-amyloid (Aβ42) (Homo sapiens).
Sequence (P05067 672-713, species assumed): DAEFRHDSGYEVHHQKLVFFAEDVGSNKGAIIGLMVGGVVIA
Numbers only, as −log10 of the molar value.

Parameter requested: pIC50. Apply to each item below.
1. COc1cc(-c2cc(N3CC(CN4CCOCC4)C3)c3nonc3c2)ccc1C1CC1 [compound 1660]
2. CN1CCC=C(c2cc(N3CC(CN4CCCC4)C3)c3nonc3c2)C1 [compound 1524]

Given back:
1: 5.41; 2: 4.83

Need pIC50 for each of these molecules.
1. Cn1cc(-c2cc(N3CC(CN4CCCC4)C3)c3nonc3c2)cn1 [compound 1527]
2. CC(NC1CC1)c1cc(N2CC(CN3CCCC3)C2)c2nonc2c1 (stereo not shown) [compound 1551]
3. OC1(c2cccc(-c3cc(N4CC(CN5CCOCC5)C4)c4nonc4c3)c2)COC1 [compound 1638]
4. Clc1ccc(-c2cc(N3CC(CN4CCCC4)C3)c3nonc3c2)cn1 [compound 1496]
5. Clc1cc(Cl)cc(-c2cc(N3CC(CN4CCOCC4)C3)c3nonc3c2)c1 [compound 1575]

Given back:
1. 5.12
2. 5.17
3. 5.52
4. 4.87
5. 5.40

Record pIC50 per entry; entries follow.
1. Fc1ccc(-c2cc(N3CC(CN4CCCC4)C3)c3nonc3c2)cc1 [compound 1547]
2. OC(c1ncoc1-c1cc(N2CC(CN3CCOCC3)C2)c2nonc2c1)C(F)(F)F (stereo not shown) [compound 1667]
3. FC(F)(F)c1nc(-c2cc(N3CC(CN4CCOCC4)C3)c3nonc3c2)no1 [compound 1643]

Given back:
4.92
4.76
4.85

Each molecule below has a recorded value; state its pIC50.
1. OC1(c2ccc(-c3cc(N4CCC(N5CCOCC5)C4)c4nonc4c3)cc2)COC1 (stereo not shown) [compound 1719]
2. FC(F)(F)c1ccc(-c2cc(N3CC(CN4CCCC4)C3)c3nonc3c2)cc1 [compound 1502]

Given back:
[4.89, 5.32]
